tested on: N87 cells; test: Cell viability CellTiter-Glo, N87; assay type: cell-based, human; conditions: unconjugated payload of the ADC
Consider the following compounds and their measured Payload LD50 readings.

# annotated cases, reported Payload LD50 shown
Task: Param readout = Payload LD50; param system = N87 cells; param query = CC[C@H](O)[C@@H](C)C1OC1C[C@@](C)(O)/C=C/C=C(\C)[C@H]1OC(=O)C[C@H](O)CC[C@@](C)(OC)[C@@H](OC(=O)N2CCNCC2)/C=C/[C@@H]1C (stereo in doubt) [D1] ; response: value
Result: >200 nM

Task: Return Payload LD50 measured with N87 cells given this compound: CC[C@H](O)[C@@H](C)[C@H]1O[C@@H]1C[C@H](C)/C=C/C=C(\C)[C@H]1OC(=O)C[C@H](O)CC[C@@](C)(OC)[C@@H](OC(=O)N2CCNCC2)/C=C/[C@@H]1C [D18]
Result: 2.993 nM

Task: Look up Payload LD50 with N87 cells for this compound: CC(=O)N1CCC(n2nnc3c(F)cc(/C=C(\C)[C@H]4OC(=O)C[C@H](O)CC[C@H](C)[C@@H](OC(=O)N5CCNCC5)/C=C/[C@@H]4C)cc32)CC1 [D14]
Result: >200 nM

Task: Item: CC[C@H](O)[C@@H](C)[C@H]1O[C@@H]1C[C@@](C)(O)/C=C/C=C(\C)[C@H]1OC(=O)C[C@H](O)CC[C@@](C)(OC(=O)N2CCNCC2)[C@@H](OC(C)=O)/C=C/[C@@H]1C [D8] Test system: N87 cells Read-out: Payload LD50 Value: ?
Result: >200 nM

Task: Can you look up Payload LD50 on N87 cells for C/C(=C\c1cc(F)cc(N2CCN(C(=O)Cn3cccn3)CC2)c1)[C@H]1OC(=O)C[C@H](O)CC[C@H](C)[C@@H](OC(=O)N2CCNCC2)/C=C/[C@@H]1C [D16] ?
Result: >200 nM

Task: Please tell me: Payload LD50 of CC[C@H](O)[C@@H](C)[C@H]1O[C@@H]1C[C@@](C)(O)/C=C/C=C(\C)[C@H]1OC(=O)C[C@H](O)CC[C@@](C)(OC)[C@@H](OC(=O)N2CCN(C)CC2)/C=C/[C@@H]1C [D2] , system N87 cells?
Result: >200 nM

Task: What reported Payload LD50 corresponds to CC[C@H](O)[C@@H](C)[C@H]1O[C@@H]1C[C@@](C)(O)/C=C/C=C(\C)[C@H]1OC(=O)C[C@H](O)CC[C@@](C)(OC)[C@@H](OC(=O)N2CCN(CCCC(=O)O)CC2)/C=C/[C@@H]1C [D25] on N87 cells?
Result: >200 nM

Now, please, on to the next compound.
Task: Under N87 cells: Payload LD50 value of CC[C@H](O)[C@@H](C)C1OC1C[C@@](C)(O)/C=C/C=C(\C)[C@H]1OC(=O)C[C@H](O)CC[C@@](C)(OC(C)=O)[C@@H](OC(=O)N2CCNCC2)/C=C/[C@@H]1C (stereo in doubt) [D4] ?
Result: 38.774 nM

----------
assay: Caco-2 permeability of ADC payload; format: in vitro ADME; settings: human, Caco-2; payload, 10 μM, 2 hours, basolateral to apical; read-out: Permeability Mean Caco-2 B-A Perm (10e-Gcm/s)
MEASURED METRIC: Papp B→A at 2 h, 10 μM (×10⁻⁶ cm/s)
Write the answer as a number in ×10⁻⁶ cm/s, unit excluded.

Task: Data request, read-out Papp B→A at 2 h, 10 μM, for CC[C@H](O)[C@@H](C)[C@H]1O[C@@H]1C[C@@](C)(O)/C=C/C=C(\C)[C@H]1OC(=O)C[C@H](O)CC[C@@](C)(OC)[C@@H](OC(=O)N2CCNC(CCC(=O)O)C2)/C=C/[C@@H]1C (stereo partly shown) [D22]
Result: 0.18

----------
// reported Payload LD50 for each item listed
tested on: MCF7 cells; test: Cell viability CellTiter-Glo, HER2-negative MCF7; details: unconjugated payload of the ADC
# number only, unit nM dropped from output

In the examples that follow, each entry is paired with its recorded Payload LD50.
Task: Value lookup for Payload LD50; key = CC[C@H](O)[C@@H](C)C1OC1C[C@@](C)(O)/C=C/C=C(\C)[C@H]1OC(=O)C[C@H](O)CC[C@@](C)(OC)[C@@H](OC(=O)N2CCNCC2)/C=C/[C@@H]1C (stereo in doubt) [D1]
Result: 135.42

Task: Endpoint output: Payload LD50 of CC(=O)N1CCC(n2nnc3c(F)cc(/C=C(\C)[C@H]4OC(=O)C[C@H](O)CC[C@H](C)[C@@H](OC(=O)N5CCNCC5)/C=C/[C@@H]4C)cc32)CC1 . Value?
Result: 77.198

Next compound, please.
Task: Look up Payload LD50: CC[C@H](O)[C@@H](C)C1OC1C[C@@](C)(O)/C=C/C=C(\C)[C@H]1OC(=O)C[C@H](O)CC[C@@](C)(OC(C)=O)[C@@H](OC(=O)N2CCNCC2)/C=C/[C@@H]1C (stereo in doubt)
Result: 96.46

----------
Here, each record is paired with measured Permeability Caco-2 A-B (10e-6 cm/s) data.
test system: Caco-2 cells; experiment: Caco-2 permeability of ADC payload; format: in vitro ADME; details: Table 26; corresponding payload, A-B

Task: Entry C/C(=C\c1cc(F)cc(N2CCN(C(=O)Cn3cccn3)CC2)c1)[C@H]1OC(=O)C[C@H](O)CC[C@H](C)[C@@H](OC(=O)N2CCNCC2)/C=C/[C@@H]1C [D16] : reported Permeability Caco-2 A-B (10e-6 cm/s) = ?
Result: 0.72 10e-6 cm/s

Attention now turns to another entry.
Task: I have this compound here, CC[C@H](O)[C@@H](C)C1OC1C[C@@](C)(O)/C=C/C=C(\C)[C@H]1OC(=O)C[C@H](O)CC[C@@](C)(OC(C)=O)[C@@H](OC(=O)N2CCNCC2)/C=C/[C@@H]1C (stereo in doubt) [D4] , and I need its recorded Permeability Caco-2 A-B (10e-6 cm/s).
Result: 0.1 10e-6 cm/s

----------
test system: Caco-2 cells; experiment: Caco-2 permeability of ADC payload; format: in vitro ADME; conditions: corresponding free payload of the ADC; B-A
The following molecules are listed with their measured Perm. Mean Caco-2 B-A Perm (10e-6 cm/s) values.

Completed entries (count: 3):
Task: Record request: Perm. Mean Caco-2 B-A Perm (10e-6 cm/s) value, item CC[C@H](O)[C@@H](C)[C@H]1O[C@@H]1C[C@@](C)(O)/C=C/C=C(\C)[C@H]1OC(=O)C[C@H](O)CC[C@@](C)(OC(=O)N2CCNCC2)[C@@H](OC(C)=O)/C=C/[C@@H]1C
Result: 2.027 10e-6 cm/s

Task: Suppose we examine the molecule CC[C@H](O)[C@@H](C)[C@H]1O[C@@H]1C[C@@](C)(O)/C=C/C=C(\C)[C@H]1OC(=O)C[C@H](O)CC[C@@](C)(O)[C@@H](OC(=O)N2CCNCC2)/C=C/[C@@H]1C ; what Perm. Mean Caco-2 B-A Perm (10e-6 cm/s) value has been reported?
Result: 0.23 10e-6 cm/s

Task: Query: Perm. Mean Caco-2 B-A Perm (10e-6 cm/s); subject: CC[C@H](O)[C@@H](C)C1OC1C[C@@](C)(O)/C=C/C=C(\C)[C@H]1OC(=O)C[C@H](O)CC[C@@](C)(OC)[C@@H](OC(=O)N2CCNCC2)/C=C/[C@@H]1C (stereo in doubt) [D1]
Result: 2.05 10e-6 cm/s

Now, please, on to the next molecule.
Task: Which Perm. Mean Caco-2 B-A Perm (10e-6 cm/s) is reported for this molecule? CC[C@H](O)[C@@H](C)C1OC1C[C@@](C)(O)/C=C/C=C(\C)[C@H]1OC(=O)C[C@H](O)CC[C@@](C)(OC(C)=O)[C@@H](OC(=O)N2CCNCC2)/C=C/[C@@H]1C (stereo in doubt)
Result: 1.79 10e-6 cm/s

----------
test system: Caco-2 cells; assay: Caco-2 permeability of ADC payload; assay type: in vitro ADME; settings: corresponding free payload of the ADC; A-B
MEASURED METRIC: Perm. Mean Caco-2 A-B Perm (10e-6 cm/s)

Previously resolved entries follow.
Task: Data request, read-out Perm. Mean Caco-2 A-B Perm (10e-6 cm/s), for CC[C@H](O)[C@@H](C)[C@H]1O[C@@H]1C[C@@](C)(O)/C=C/C=C(\C)[C@H]1OC(=O)C[C@H](O)CC[C@@](C)(O)[C@@H](OC(=O)N2CCNCC2)/C=C/[C@@H]1C
Result: 0.17 10e-6 cm/s

Task: Can you share its Perm. Mean Caco-2 A-B Perm (10e-6 cm/s)? I mean this molecule: CC[C@H](O)[C@@H](C)[C@H]1O[C@@H]1C[C@@](C)(O)/C=C/C=C(\C)[C@H]1OC(=O)C[C@H](O)CC[C@@](C)(OC(=O)N2CCNCC2)[C@@H](OC(C)=O)/C=C/[C@@H]1C
Result: 0.128 10e-6 cm/s

Task: Record request: Perm. Mean Caco-2 A-B Perm (10e-6 cm/s) value, item CC[C@H](O)[C@@H](C)C1OC1C[C@@](C)(O)/C=C/C=C(\C)[C@H]1OC(=O)C[C@H](O)CC[C@@](C)(OC)[C@@H](OC(=O)N2CCNCC2)/C=C/[C@@H]1C (stereo in doubt) [D1]
Result: 0.14 10e-6 cm/s

Now for another entry.
Task: Using the record for CC[C@H](O)[C@@H](C)C1OC1C[C@@](C)(O)/C=C/C=C(\C)[C@H]1OC(=O)C[C@H](O)CC[C@@](C)(OC(C)=O)[C@@H](OC(=O)N2CCNCC2)/C=C/[C@@H]1C (stereo in doubt) , report its Perm. Mean Caco-2 A-B Perm (10e-6 cm/s).
Result: 0.1 10e-6 cm/s
